FYI, the data here is from paper PMC10303687.

target: MDM2_(Fishes/Tetrapods)^AltAll; experiment: stopped-flow fluorescence kinetics; 10°C, 20 mM sodium phosphate pH 7.4, 150 mM NaCl, 1 mM TCEP; Trp23 emission; MDM2 constant at 0.5–2 μM, p53TAD varied 1–10 μM for k on; k off from displacement of the 1 μM:1 μM complex by 10–20 μM dansylated human p53TAD peptide; K D = k off/k on; conditions: both partners purified
pKd: −log10 of the molar value. Ends that are not written are not given here.
Reported property: pKd

binder="SQESFSDLWNLL (not fully specified (N-terminus); also: acetylated, site not given here) [p53TAD_(Fishes/Tetrapods)^AltAll]" experimental_value=7.01
